Assay comment: Tmax in orally dosed healthy human
Type: ADME, organism-based
Cond: in vivo, po
Observable: Tmax (min)
Answers are plain numbers, in min.

Exercise: I would be grateful if you could share the reported Tmax for "COc1cc(C(=O)N2C[C@H](C)OC[C@@H]2CCO)cc2nc(N[C@H](CF)c3cccc(Cl)c3)oc12" .
Solution: 45

====

Target desc: Prothrombin (Rattus norvegicus, UniProt P18292)
Assay comment: Inhibition of thrombin in rat plasma
Observable: IC50 (nM)
Answers are plain numbers, in nM.

Exercise: I would be grateful if you could share the reported IC50 for "COc1cc(C(=O)N2C[C@H](C)OC[C@@H]2CCO)cc2nc(N[C@H](CF)c3cccc(Cl)c3)oc12" .
Solution: 10

====

Target desc: Nuclear receptor subfamily 1 group I member 2 (Homo sapiens, UniProt O75469)
Sequence (O75469 whole entry): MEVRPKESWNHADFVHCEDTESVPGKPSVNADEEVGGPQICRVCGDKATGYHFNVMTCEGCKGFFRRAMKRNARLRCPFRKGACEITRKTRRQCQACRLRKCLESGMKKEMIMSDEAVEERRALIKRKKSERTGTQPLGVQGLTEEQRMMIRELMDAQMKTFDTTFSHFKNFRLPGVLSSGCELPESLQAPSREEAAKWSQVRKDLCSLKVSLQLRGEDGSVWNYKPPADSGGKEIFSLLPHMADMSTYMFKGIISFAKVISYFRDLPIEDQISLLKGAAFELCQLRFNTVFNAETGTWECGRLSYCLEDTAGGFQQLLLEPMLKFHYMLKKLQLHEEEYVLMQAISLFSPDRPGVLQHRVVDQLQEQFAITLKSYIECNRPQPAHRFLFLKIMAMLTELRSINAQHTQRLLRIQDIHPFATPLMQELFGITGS
Assay comment: Activation of human PXR expressed in human HepG2 cells
Format: ADME, cell-based
Output: class label from MEC. Mapping: low bracket: < 3 µM; middle bracket: ≥ 3 µM and < 10 µM; high bracket: ≥ 10 µM

Check out these entries, answers already filled in.
* COc1cc(C(=O)N2CCC(O)C(C)C2)cn2nc(NCc3cccc(Cl)c3)nc12 (racemic) | high bracket
* COc1cc(C(=O)N2C[C@H](C)OC[C@@H]2CCO)cc2nc(N[C@H](C)c3cccc(Cl)c3)oc12 | low bracket
* COc1cc(C(=O)N2CC[C@@H](O)C(C)(C)C2)cc2nc(NCc3cccc(Cl)c3)oc12 (racemic) | middle bracket
* COc1cc(C(=O)N2CC(C)OCC2C2CC(O)C2)cn2nc(NCc3cccc(Cl)c3)nc12 (configuration not stated) | high bracket
* COc1cc(C(=O)N2CC(C)(CCO)OC[C@H]2C)cn2nc(NCc3cccc(Cl)c3)nc12 (some centres not stated) | high bracket
* COc1cc(C(=O)N2CC(C)C(O)CC2C2CC2)cc2nc(NCc3cccc(Cl)c3)oc12 (racemic) | low bracket

Exercise: Note: place this compound into its band. Item: COc1cc(C(=O)N2CC(C)OCC2CO)cc2nc(N[C@H](C)c3cccc(Cl)c3)oc12 (some centres not stated)
Solution: low bracket

Exercise: Same question, COc1cc(C(=O)N2CC(C)(CCO)OC[C@H]2C)cc2nc(NCc3cc(Cl)ccn3)oc12 (some centres not stated) this time
Solution: middle bracket

Exercise: Same question, COc1cc(C(=O)N2CC(C)C(O)CC2C)cc2nc(NCc3cccc(Cl)c3)oc12 (configuration not stated) this time
Solution: low bracket

Exercise: Same question, "COc1cc(C(=O)N2CCC(O)CC2)cc2nc(NCc3cccc(Cl)c3)oc12" this time
Solution: middle bracket

Exercise: Same question, COc1cc(C(=O)N2CC(C)OCC2CCO)cc2nc(NCc3cc(Cl)ccn3)oc12 (configuration not stated) this time
Solution: high bracket

Exercise: Same question, COc1cc(C(=O)N2CC(C)OCC2C2CC(O)C2)cc2nc(NCc3cc(Cl)ccn3)oc12 (configuration not stated) this time
Solution: middle bracket

====

Assay comment: Half life in Wistar Hannover rat at 0.3 to 0.5 mg/kg, iv by LC-MS/MS analysis
Type: ADME, organism-based
Cond: in vivo, dose 0.3-0.5 mg/kg, time <=24 hrs
Observable: half-life (h)
Answers are plain numbers, in h.

Record excerpt, results attached:
* COc1cc(C(=O)N2CC(C)(CCO)OC[C@H]2C)cn2nc(NCc3cccc(Cl)c3)nc12 (stereo not given in full) | 0.32
* CCCCCCOC(=O)NC(=N)c1ccc(NCc2nc3cc(C(=O)N(CCC(=O)OCC)c4ccccn4)ccc3n2C)cc1 [DABIGATRAN ETEXILATE] | 1.2
* COc1cc(C(=O)N2CC[C@@H](O)[C@H](C)C2)cc2nc(NCc3cccc(Cl)c3)oc12 | 1.3
* COc1cc(C(=O)N2C[C@H](C)OC[C@@H]2CCO)cc2nc(N[C@H](CF)c3cccc(Cl)c3)oc12 | 1.4

Exercise: I would be grateful if you could share the reported half-life for "CC[C@@H]1CO[C@@](C)(CCO)CN1C(=O)c1cc(OC)c2oc(N[C@H](C)c3cccc(Cl)c3)nc2c1" .
Solution: 1

====

Assay comment: Clearance in Wistar rat hepatocytes at 1 uM incubated up to 90 mins by LC-MS/MS analysis
Type: ADME, cell-based, Hepatocyte
Cond: Wistar
Hi! Could you tag entries with CLhep predicted at 1 µM below 60 mL/min/kg as T, and those at or above as F? Much appreciated.

• COc1cc(C(=O)N2C[C@@H](C)OC[C@H]2CCO)cc2nc(N[C@H](C)c3cccc(Cl)c3)oc12 = T
• COc1cc(C(=O)N2CC[C@@H](O)C(C)(C)C2)cc2nc(NCc3cccc(Cl)c3)oc12 (racemic) = T
• COc1cc(C(=O)N2CCC(O)C(C)C2)cc2nc(NCc3cc(Cl)ccn3)oc12 (racemic) = T
• CCCN(CC1CCOC1)C(=O)c1cc(OC)c2oc(NCc3cccc(Cl)c3)nc2c1 (racemic) = F

Please find the next compound below.
Exercise: Take the compound COc1cc(C(=O)N2CC(C)(CCO)OC[C@H]2C)cc2nc(N[C@H](CF)c3cccc(Cl)c3)oc12 (stereo partly drawn) and say whether its CLhep predicted at 1 µM is less than 60 mL/min/kg.
Solution: T

====

I'd appreciate it if you could supply log10 MEC values for the items below.
Target desc: Nuclear receptor subfamily 1 group I member 2 (Homo sapiens, UniProt O75469)
Assay comment: Activation of human PXR expressed in human HepG2 cells
Format: ADME, cell-based
Lab note - MEC converted to log10 from values in µM.

Record excerpt, results attached:
* COc1cc(C(=O)N2CCC(O)C(C)C2)cc2nc(NCc3cc(Cl)ccc3O)oc12 (racemic) | 0.92
* COc1cc(C(=O)N2CCOCC2(C)C)cc2nc(NCc3cccc(Cl)c3)oc12 | 0.11
* COc1cc(C(=O)N2CC(C)CCC2CCO)cc2nc(NCc3cccc(Cl)c3)oc12 (stereo in doubt; 37b) | -1.52
* COc1cc(C(=O)N2CC(C)OCC2C2CC(O)C2)cc2nc(N[C@H](C)c3cccc(Cl)c3)oc12 (some centres not stated) | 0.53
* COc1cc(C(=O)N2CC(C)OCC2CCO)cn2nc(NCc3cccc(Cl)c3)nc12 (configuration not stated) | 1.04
* COc1cc(C(=O)N2CC(C)(CCO)OC[C@H]2C)cc2nc(N[C@H](CF)c3cccc(Cl)c3)oc12 (some centres not stated) | -0.41

Go through the list and state log10 MEC for each entry.
1. COc1cc(C(=O)N2CC(C)(CCO)OC[C@H]2C)cc2nc(N[C@H](C)c3cccc(Cl)c3)oc12 (some centres not stated)
2. COc1cc(C(=O)N2CC(C)C(O)CC2CCO)cc2nc(NCc3cccc(Cl)c3)oc12 (racemic)

Solution:
1. -0.54
2. -0.09

Go through the list and state log10 MEC for each entry.
1. COc1cc(C(=O)N2CC(C)CCC2CCO)cc2nc(NCc3cccc(Cl)c3)oc12 (racemic)
2. COc1cc(C(=O)N2CCOC(C)(CCO)C2)cc2nc(N[C@H](C)c3cccc(Cl)c3)oc12 (some centres not stated)
3. CC[C@@H]1CO[C@@](C)(CCO)CN1C(=O)c1cc(OC)c2oc(N[C@H](C)c3cccc(Cl)c3)nc2c1
4. COc1cc(C(=O)N2CC[C@@H](O)[C@H](C)C2)cc2nc(NCc3cccc(Cl)c3)oc12

Solution:
1. -0.49
2. -0.24
3. -0.59
4. -0.16

Go through the list and state log10 MEC for each entry.
1. COc1cc(C(=O)N2CCC(O)C(C)C2)cc2nc(NCc3cccc(Cl)c3)oc12 (racemic)
2. COc1cc(C(=O)N2CC(C)OCC2C2CC(O)C2)cc2nc(N[C@H](CF)c3cccc(Cl)c3)oc12 (some centres not stated)
3. COc1cc(C(=O)N2C[C@H](C)OC[C@@H]2CCO)cc2nc(N[C@H](CF)c3cccc(Cl)c3)oc12
4. COc1cc(C(=O)N2CCC(O)C(C)C2)cc2nc(NCc3cc(Cl)ccn3)oc12 (racemic)
5. COc1cc(C(=O)N2C[C@@H](C)OC[C@H]2CCO)cc2nc(N[C@H](C)c3cccc(Cl)c3)oc12

Solution:
[0.15, 0.48, 0.28, 0.56, 0.15]

====

Assay comment: Blood clearance in Wistar Hannover rat at 0.3 to 0.5 mg/kg, iv by LC-MS/MS analysis
Type: ADME, organism-based
Cond: whole blood, dose 0.3-0.5 mg/kg, time <=24 hrs
I'd appreciate it if you could supply clearance values for the items below.
Answers are plain numbers, in mL/min/kg.

Record excerpt, results attached:
* CCCCCCOC(=O)NC(=N)c1ccc(NCc2nc3cc(C(=O)N(CCC(=O)OCC)c4ccccn4)ccc3n2C)cc1 [DABIGATRAN ETEXILATE] | 9.83
* COc1cc(C(=O)N2CC(C)(CCO)OC[C@H]2C)cc2nc(N[C@H](CF)c3cccc(Cl)c3)oc12 (stereo partly drawn) | 53.3

Kindly consider the entry below.
Exercise: I would be grateful if you could share the reported clearance for "CC[C@@H]1CO[C@@](C)(CCO)CN1C(=O)c1cc(OC)c2oc(N[C@H](C)c3cccc(Cl)c3)nc2c1" .
Solution: 65
